# Tested on: SF-268 CNS
# protocolSummary: NCI tumour cell line growth inhibition, 48 h
Assign TGI to each entry below.

Looking up C#CC1(O)CCC2C3CCc4cc(Oc5nc(F)nc(-c6c7ccccc7c7n6CCS7)n5)ccc4C3CC[C@@]21C (some centres not stated) , I see its TGI listed as > 100 µM

Looking up O=c1c2c([nH]c3nccn13)CCC2 , I see its TGI listed as > 10 µM

Looking up CC1CC/C(=C\c2ccc(F)cc2)C2=C1C(c1ccc(F)cc1)N1C(=O)CSC1=N2 (configuration not stated) , I see its TGI listed as > 100 µM

Looking up C/C=C(\C)C(=O)OC1CC(OC(C)=O)C2(C(=O)OC)COC3C2C1(C)C1C2(C(=O)OC)OCC1(C3O)C1(O)C3CC(C4(O)C=COC4O3)C1(C)O2 (configuration not stated) , I see its TGI listed as > 100 µM

Looking up C#C[C@]1(O)CC[C@H]2[C@@H]3CCC4=C/C(=N/NC(=O)c5cccc6c(=O)c7ccccc7[nH]c56)CCC4[C@H]3CC[C@@]21C (some centres not stated) , I see its TGI listed as > 100 µM

Looking up CCOC(=O)c1ccc(Nc2nc3ccccc3nc2-c2cccs2)cc1 , I see its TGI listed as > 100 µM

Looking up Cc1cc(C)c2c(c1)CC1(Cc3cc(C)c(C)cc3C1=O)C2=O (configuration not stated) , I see its TGI listed as > 100 µM

Looking up CCC[CH2][Sn]([CH2]CCC)([O]C(=O)c1cc(OC)c(OC)cc1OC)[O][Sn]([CH2]CCC)([CH2]CCC)[O]C(=O)c1cc(OC)c(OC)cc1OC , I see its TGI listed as 0.972 µM

Looking up N#Cc1nc(-c2ccc(F)cc2)oc1S(=O)(=O)N1CCCCC1 , I see its TGI listed as 6.23 µM

Looking up CC(C)(C)c1ccc(C(O)CCCN2CCC(C(O)(c3ccccc3)c3ccccc3)CC2)cc1 (configuration not stated) , I see its TGI listed as 2.92 µM

Looking up O=C(O)C[C@H](O)C[C@H](O)/C=C/c1c(C2CC2)nc2ccccc2c1-c1ccc(F)cc1 , I see its TGI listed as > 100 µM

Looking up CN(Cc1cnc2nc(N)nc(N)c2n1)c1ccc(C(=O)NC23CC4CC(CC(C4)C2)C3)cc1 , I see its TGI listed as 22.7 µM

Just for reference, PubChem BioAssay (NCI) is where these values come from.
